Target: cynomolgus MMP13 (cynomolgus, UniProt A0A2K5U988 104-471)
Assay: cell-based or functional assay
measure.name: IC50, cyno fluorogenic peptide assay

- binder: "C0101PMP062C02 (VHH, Profile 2 Nanobody; also called C0101062C02) VHH: EVQLVESGGALVRPGGSLRLSCAASGFAFSAAYMSWVRQAPGRGLEWVSSISDDGSKTYYADSVKGRFTISRDNAKNTVYLQMNNLKPDDTAVYYCNTGYGATTTRPGRYWGQGTQVTVSS"
  recorded.measurement: "1.4 nM"
- binder: "C0101PMP516G08 (VHH, Profile 2 Nanobody; also called C0101516G08) VHH: DVQLVESGGGLVQPGGSLRLSCAGSGSIFRINVMAWYRQAPGKQRELVAAITSGGTTNYADSVKGRFTISRDNSKNTVYLQMNSLRPEDTAVYYCYADIGWPYVLDYDFWGQGTLVTVSS"
  recorded.measurement: "0.4 nM"
- binder: "C0101PMP525C04 (VHH, Profile 2 Nanobody) VHH: DVQLVESGGGLVQPGGSLRLSCAGSGSIFSGNAMGWYRQAPGKQRELVAAITSGGVTNYADSVKGRFTISRDNSKNTVYLQMNSLRPEDTAVYYCAADIRYPTGLVGDYWGQGTLVTVSS"
  recorded.measurement: "32.5 nM"
- binder: "C0101PMP063F01 (VHH, Profile 2 Nanobody) VHH: EVQLVESGGGLVQPGGSLRLSCSASTGIFRINTMGWHRQAPGKQRDLVATFTSDDNTKYADSVKGRFTISRDNAENTVYLQMNDLKPEDTAVYYCHATTVMYDSNSPDYWGQGTQVTVSS"
  recorded.measurement: "108 nM"

Request: Hello, please tell me recorded IC50, cyno fluorogenic peptide assay for this one: C0101PMP517A01 (VHH, Profile 2 Nanobody; also called C0101517A01; C010100087 (parental)) VHH: DVQLVESGGGLVQPGGSLRLSCAASGRTFSSYAMGWFRQAPGKEREFVAAISWSGGSTYYADSVKGRFTISRDNSKNTVYLQMNSLRPEDTAVYYCTAALAVYGPNRYRYGPVGEYNYWGQGTLVTVSS
Response: 3 nM

Request: Specify IC50, cyno fluorogenic peptide assay for C0101PMP529C12 (VHH, Profile 2 Nanobody; also called C0101529C12) VHH: DVQLVESGGGLVQPGGSLRLSCVASGSIFSINAMGWYRQAPGKQRELVAAISSGGSTYYADSVKGRFTISRDNSKNTVYLQMNSLRPEDTAVYYCNAAVDASRGLPYELYYYWGQGTLVTVSS and stop.
Response: 0.7 nM
